Cited source for all entries: ChEMBL document CHEMBL4261634

- study-target: Cytochrome P450 2C9 (Homo sapiens, UniProt P11712)
- Sequence (P11712 whole entry): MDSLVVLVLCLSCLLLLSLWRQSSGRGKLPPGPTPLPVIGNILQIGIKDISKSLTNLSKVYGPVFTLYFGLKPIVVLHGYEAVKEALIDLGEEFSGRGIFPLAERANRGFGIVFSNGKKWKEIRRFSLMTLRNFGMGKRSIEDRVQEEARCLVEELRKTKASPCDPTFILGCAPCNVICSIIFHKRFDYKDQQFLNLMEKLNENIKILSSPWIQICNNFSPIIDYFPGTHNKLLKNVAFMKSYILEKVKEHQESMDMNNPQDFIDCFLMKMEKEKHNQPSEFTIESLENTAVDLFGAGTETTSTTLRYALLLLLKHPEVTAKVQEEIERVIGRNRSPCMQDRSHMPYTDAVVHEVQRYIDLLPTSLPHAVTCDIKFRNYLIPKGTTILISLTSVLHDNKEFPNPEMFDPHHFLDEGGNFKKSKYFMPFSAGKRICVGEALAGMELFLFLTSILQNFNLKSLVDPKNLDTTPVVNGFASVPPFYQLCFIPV
measured-attribute: IC50
For clarity, give the value followed by its unit.

Query: Which IC50 is listed for CC#C[C@@H](CC(=O)O)c1ccc(OC[C@H]2COc3ccc(Cl)cc3O2)cc1 ?
Result: 60.5 µM

* * *

- study-target: Solute carrier organic anion transporter family member 1B1 (Homo sapiens)
- Sequence (Q9Y6L6 whole entry): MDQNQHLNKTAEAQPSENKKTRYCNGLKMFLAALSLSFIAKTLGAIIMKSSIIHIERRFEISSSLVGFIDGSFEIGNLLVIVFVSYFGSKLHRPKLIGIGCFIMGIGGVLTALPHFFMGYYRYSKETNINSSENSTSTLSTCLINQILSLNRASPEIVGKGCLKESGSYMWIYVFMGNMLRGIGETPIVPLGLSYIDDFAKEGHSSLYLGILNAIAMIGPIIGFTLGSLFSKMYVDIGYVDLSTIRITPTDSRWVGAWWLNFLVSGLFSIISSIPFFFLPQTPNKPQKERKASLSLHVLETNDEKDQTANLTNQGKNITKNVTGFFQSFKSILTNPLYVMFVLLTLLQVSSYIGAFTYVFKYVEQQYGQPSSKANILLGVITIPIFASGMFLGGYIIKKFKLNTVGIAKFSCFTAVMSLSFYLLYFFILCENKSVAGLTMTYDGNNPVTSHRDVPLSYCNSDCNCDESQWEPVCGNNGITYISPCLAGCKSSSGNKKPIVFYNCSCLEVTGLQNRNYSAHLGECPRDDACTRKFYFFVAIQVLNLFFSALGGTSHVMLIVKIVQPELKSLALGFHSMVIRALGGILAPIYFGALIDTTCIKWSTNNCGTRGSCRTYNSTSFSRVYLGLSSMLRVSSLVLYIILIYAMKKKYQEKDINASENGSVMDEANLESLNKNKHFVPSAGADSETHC
pIC50: −log10 of the molar value.
measured-attribute: pIC50

Query: Query for Solute carrier organic anion transporter family member 1B1 (Homo sapiens): what pIC50 does the record show for CC#C[C@@H](CC(=O)O)c1ccc(OC[C@H]2COc3ccc(Cl)cc3O2)cc1 ?
Result: < 4.00

* * *

- study-target: Free fatty acid receptor 1 (Homo sapiens)
- test-summary: Agonist activity at human GPR40 expressed in human HEK293 cells assessed as increase in intracellular calcium flux after 10 mins by fluorescence assay relative to linoleic acid
- Format: functional, cell-based
Each record here notes measured Emax.
For clarity, give the value followed by its unit.

Previously resolved entries follow.
[
  {
    "compound": "CC#C[C@@H](CC(=O)O)c1ccc(OC[C@H]2COc3cc(Cl)ccc3O2)cc1",
    "Emax": "80%"
  },
  {
    "compound": "CC#C[C@@H](CC(=O)O)c1ccc(OC[C@@H]2COc3ccc(Cl)cc3O2)cc1",
    "Emax": "65%"
  }
]

Query: Which Emax is listed for O=C(O)CCc1ccc(OCC2COc3ccc(Br)cc3O2)cc1F (stereo unspecified) ?
Result: 81%

Query: How about this compound: CC#C[C@@H](CC(=O)O)c1ccc(OC[C@H]2COc3ccc(C#N)cc3O2)cc1
Result: 60%

Query: How about this compound: O=C(O)CC(c1ccncc1)c1ccc(OCC2COc3ccc(Cl)cc3O2)cc1 (stereo unspecified)
Result: 62%

Query: How about this compound: O=C(O)CC(c1ccc(F)cc1)c1ccc(OCC2COc3ccc(Cl)cc3O2)cc1 (stereo unspecified)
Result: 83%

Query: How about this compound: CC#C[C@@H](CC(=O)O)c1ccc(OC[C@H]2COc3ccc(F)cc3O2)cc1
Result: 86%

Query: How about this compound: CC#C[C@@H](CC(=O)O)c1ccc(OC[C@H]2COc3ccc(Br)cc3O2)cc1
Result: 69%

* * *

- study-target: Free fatty acid receptor 1 (Homo sapiens, UniProt O14842)
- Sequence (O14842 whole entry): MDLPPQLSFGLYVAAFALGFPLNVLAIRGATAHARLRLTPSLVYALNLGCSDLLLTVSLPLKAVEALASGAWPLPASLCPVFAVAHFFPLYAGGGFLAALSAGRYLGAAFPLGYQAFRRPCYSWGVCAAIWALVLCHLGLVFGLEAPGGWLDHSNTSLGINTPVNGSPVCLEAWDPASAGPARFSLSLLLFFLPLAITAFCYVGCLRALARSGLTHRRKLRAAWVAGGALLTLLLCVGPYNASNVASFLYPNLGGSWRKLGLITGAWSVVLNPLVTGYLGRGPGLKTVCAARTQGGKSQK
- test-summary: Agonist activity at human GPR40 expressed in human HEK293 cells assessed as increase in intracellular calcium flux after 10 mins by fluorescence assay relative to linoleic acid
- Type: functional, cell-based
Each record here notes measured Emax.
Numeric only. Scale: %

[
  {
    "molecule": "Cn1nncc1C(CC(=O)O)c1ccc(OCC2COc3ccc(Cl)cc3O2)cc1 (stereo not drawn)",
    "reported": 70
  },
  {
    "molecule": "CC#C[C@@H](CC(=O)O)c1ccc(OC[C@H]2COc3ccccc3O2)cc1",
    "reported": 70
  }
]

Query: Which Emax is listed for Cn1ccnc1C(CC(=O)O)c1ccc(OCC2COc3ccc(Cl)cc3O2)cc1 (stereo not drawn) ?
Result: 68

* * *

- study-target: Free fatty acid receptor 1 (Homo sapiens, UniProt O14842)
- test-summary: Agonist activity at human GPR40 expressed in human HEK293 cells assessed as increase in intracellular calcium flux after 10 mins by fluorescence assay
- Assay type: functional, cell-based
Each record here notes measured pEC50.
Here pEC50 is given on a logarithmic scale as minus log10 of the concentration in mol/L.

Previously resolved entries follow.
[
  {
    "compound": "CC#C[C@@H](CC(=O)O)c1ccc(OC[C@H]2COc3ccc(OC(F)(F)F)cc3O2)cc1",
    "pEC50": 6.15
  },
  {
    "compound": "CC#C[C@@H](CC(=O)O)c1ccc(OC[C@H]2COc3ccc(Cl)cc3O2)cc1",
    "pEC50": 7.30
  }
]

Query: Which pEC50 is listed for CC#C[C@@H](CC(=O)O)c1ccc(OC[C@H]2COc3cc(F)c(Cl)cc3O2)cc1 ?
Result: 6.68

Query: How about this compound: CC#C[C@@H](CC(=O)O)c1ccc(OC[C@H]2COc3cc(Br)c(Cl)cc3O2)cc1
Result: 6.70

Query: How about this compound: CC#C[C@@H](CC(=O)O)c1ccc(OC[C@H]2COc3cc(Cl)ccc3O2)cc1
Result: 6.96

Query: How about this compound: CCOC(CC(=O)O)c1ccc(OCC2COc3ccc(Cl)cc3O2)cc1 (configuration not stated)
Result: 6.19

Query: How about this compound: CC#C[C@@H](CC(=O)O)c1ccc(OC[C@H]2COc3ccc(S(C)(=O)=O)cc3O2)cc1
Result: 4.57

Query: How about this compound: CC#C[C@@H](CC(=O)O)c1ccc(OC[C@H]2COc3cccc(Cl)c3O2)cc1
Result: 6.28

Query: How about this compound: COCCOc1ccc2c(c1)OC(COc1ccc(CCC(=O)O)c(F)c1)CC2 (configuration not stated)
Result: 5.63

* * *

- study-target: Free fatty acid receptor 1 (Homo sapiens)
- test-summary: Agonist activity at human GPR40 expressed in human HEK293 cells assessed as increase in intracellular calcium flux after 10 mins by fluorescence assay relative to linoleic acid
- Assay type: functional, cell-based
measured-attribute: Emax (%)
Numeric only. Scale: %

Previously resolved entries follow.
[
  {
    "molecule": "COc1ccc2c(c1)OC(COc1ccc(CCC(=O)O)c(F)c1)CO2 (stereo not drawn)",
    "measured-attribute": "Emax",
    "reported": 80
  },
  {
    "molecule": "COc1ccc2c(c1)OC(COc1ccc(CCC(=O)O)c(F)c1)CC2 (stereo not drawn)",
    "measured-attribute": "Emax",
    "reported": 58
  }
]

Query: Which Emax is listed for O=C(O)CCc1ccc(NCC2COc3ccc(Cl)cc3O2)cc1F (stereo not drawn) ?
Result: 69

* * *

- study-target: Free fatty acid receptor 1 (Homo sapiens, UniProt O14842)
- test-summary: Agonist activity at human GPR40 expressed in human HEK293 cells assessed as increase in intracellular calcium flux after 10 mins by fluorescence assay
- Assay type: functional, cell-based
pEC50: −log10 of the molar value.
measured-attribute: pEC50

[
  {
    "structure-smiles": "CC#C[C@@H](CC(=O)O)c1ccc(OC[C@H]2COc3ccc(C(=O)N(C)C)cc3O2)cc1",
    "study-target": "Free fatty acid receptor 1 (Homo sapiens, UniProt O14842)",
    "reported": "< 4.52"
  }
]

Query: Which pEC50 is listed for CC#C[C@@H](CC(=O)O)c1ccc(OC[C@H]2COc3ccc(CO)cc3O2)cc1 ?
Result: < 4.52

Query: How about this compound: CC#C[C@@H](CC(=O)O)c1ccc(OC[C@H]2COc3ccc(C(=O)N4CCOCC4)cc3O2)cc1
Result: < 4.30
